# Subject of test: natriuretic peptide receptor on C3H10T1/2 cells (Mus musculus)
# Construct: endogenous in cells; host or cells: C3H10T1/2 cells
# Sequence (Q6VVW5 23-1047 limits assumed): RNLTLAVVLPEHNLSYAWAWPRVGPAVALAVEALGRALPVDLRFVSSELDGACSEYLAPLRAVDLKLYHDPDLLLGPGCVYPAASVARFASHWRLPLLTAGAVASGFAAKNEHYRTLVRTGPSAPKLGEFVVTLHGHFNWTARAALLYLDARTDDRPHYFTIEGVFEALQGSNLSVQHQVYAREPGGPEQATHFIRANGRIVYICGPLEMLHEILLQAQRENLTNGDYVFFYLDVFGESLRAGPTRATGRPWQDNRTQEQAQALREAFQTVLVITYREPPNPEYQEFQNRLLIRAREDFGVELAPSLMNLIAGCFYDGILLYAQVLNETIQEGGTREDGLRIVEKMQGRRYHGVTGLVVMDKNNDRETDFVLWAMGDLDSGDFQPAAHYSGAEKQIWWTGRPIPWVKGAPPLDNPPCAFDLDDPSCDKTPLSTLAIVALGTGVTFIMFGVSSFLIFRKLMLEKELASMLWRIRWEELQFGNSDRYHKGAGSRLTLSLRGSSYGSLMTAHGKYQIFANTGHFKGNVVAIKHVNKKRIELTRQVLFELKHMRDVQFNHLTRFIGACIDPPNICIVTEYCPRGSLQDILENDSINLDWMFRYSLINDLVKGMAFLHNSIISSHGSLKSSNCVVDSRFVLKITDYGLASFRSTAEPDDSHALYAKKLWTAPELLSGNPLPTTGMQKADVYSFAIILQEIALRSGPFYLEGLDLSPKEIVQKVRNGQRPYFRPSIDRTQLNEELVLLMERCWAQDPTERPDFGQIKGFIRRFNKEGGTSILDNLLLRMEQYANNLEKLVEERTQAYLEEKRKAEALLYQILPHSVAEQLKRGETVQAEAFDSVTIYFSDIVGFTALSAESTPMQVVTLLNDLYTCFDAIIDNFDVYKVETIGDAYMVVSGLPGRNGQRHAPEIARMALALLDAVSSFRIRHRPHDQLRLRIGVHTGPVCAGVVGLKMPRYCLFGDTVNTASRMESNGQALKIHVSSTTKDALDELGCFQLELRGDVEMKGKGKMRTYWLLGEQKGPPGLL
# Run description: Biotrak enzyme immunoassay of cGMP elicited on C3H10T1/2 cells
# Format: cell-based
# Experimental conditions: Table 2; cGMP assay, compared to CNP
Measured quantity: cGMP response as percent of CNP (%)

// known answers, use as guide
Residue codes | cGMP response as percent of CNP [%]
C A G L K L D R I G S M S G L G C (CAGLKLDRIGSMSGLGC; peptide variant) [SEQ ID NO:6] | 43.8
C H F G L K L D R I G S - - - - C (CHFGLKLDRIGSC; peptide variant) [SEQ ID NO:20] | 11.9
C F G L K L D R I G S Q - - - - C (CFGLKLDRIGSQC; peptide variant) [SEQ ID NO:18] | 11.8

P = C F G L K L D R I G S M - - - - C (CFGLKLDRIGSMC; peptide variant) [SEQ ID NO:16]
Q = C F G L K L D R I G S A S G L G C (CFGLKLDRIGSASGLGC; peptide variant) [SEQ ID NO:10]
R = C H F G L K L D R I G S M S - - C (CHFGLKLDRIGSMSC; peptide variant) [SEQ ID NO:11]
Ordering criterion: cGMP response as percent of CNP; begin with the maximum. Please list each label once, in the requested order.
Q, R, P

Data credit: patent US7276481B2
